These data points were gathered from patent US20140315933A1.

Biological target: URAT-1 transporter (Homo sapiens, UniProt Q96S37)
Construct: expressed in transfected cells
Sequence (Q96S37 with tags, fused parts or gaps): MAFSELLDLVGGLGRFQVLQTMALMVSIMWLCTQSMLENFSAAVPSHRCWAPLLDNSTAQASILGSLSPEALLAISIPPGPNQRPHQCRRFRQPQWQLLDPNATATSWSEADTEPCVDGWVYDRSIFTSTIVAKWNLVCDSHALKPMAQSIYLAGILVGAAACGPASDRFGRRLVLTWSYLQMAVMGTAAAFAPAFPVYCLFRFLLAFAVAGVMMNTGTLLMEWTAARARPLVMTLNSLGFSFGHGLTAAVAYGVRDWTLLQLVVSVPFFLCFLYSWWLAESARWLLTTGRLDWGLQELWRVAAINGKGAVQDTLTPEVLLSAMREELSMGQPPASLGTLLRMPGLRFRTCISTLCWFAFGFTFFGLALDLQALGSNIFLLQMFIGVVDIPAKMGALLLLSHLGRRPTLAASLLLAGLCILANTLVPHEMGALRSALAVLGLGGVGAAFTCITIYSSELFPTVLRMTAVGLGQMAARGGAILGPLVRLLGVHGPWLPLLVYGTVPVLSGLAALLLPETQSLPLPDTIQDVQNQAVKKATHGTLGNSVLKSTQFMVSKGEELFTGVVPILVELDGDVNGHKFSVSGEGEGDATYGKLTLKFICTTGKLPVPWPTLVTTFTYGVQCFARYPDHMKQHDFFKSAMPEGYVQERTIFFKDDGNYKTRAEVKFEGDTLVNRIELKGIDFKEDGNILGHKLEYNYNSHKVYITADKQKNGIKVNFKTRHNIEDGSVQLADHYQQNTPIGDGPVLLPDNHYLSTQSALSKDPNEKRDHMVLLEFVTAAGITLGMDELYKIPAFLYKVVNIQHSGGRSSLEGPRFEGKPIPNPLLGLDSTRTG
Test: URAT-1 inhibitor activity: [14C]-uric acid uptake into CHO-URAT1(L)GFP#8 (CHO#8) cells, scintillation proximity
Format: cell-based
# IC50 per record follows

>>> measurement("COc1ccc(F)cc1Oc1ccc(S(=O)(=O)Nc2ncns2)cc1C#N [compound 277]")
"> 5.43 µM"
>>> measurement("N#Cc1cc(S(=O)(=O)Nc2nccs2)ccc1Oc1cccc(CCO)c1 [compound 175]")
"> 5.44 µM"

As a next step, examine the molecule that follows.
Answer with reported IC50 of O=S(=O)(Nc1nccs1)c1ccc(Oc2ccc(F)c(F)c2)c(F)c1 [compound 226]
> 10 µM

###

Form field: IC50 (one value per entry).
Biological target: URAT-1 transporter (Homo sapiens, UniProt Q96S37)
Construct: expressed in transfected cells
Experiment: URAT-1 inhibitor activity: [14C]-uric acid uptake into CHO-URAT1(L)GFP#8 (CHO#8) cells, scintillation proximity
Type: cell-based
Where a name gives a salt, the structure may show the parent alone.

Some compounds with recorded IC50:
>>> measurement("COc1ccc(Oc2cc(F)c(S(=O)(=O)Nc3nncs3)cc2Cl)cc1Cl")
"> 7.61 µM"
>>> measurement("N#Cc1cc(S(=O)(=O)Nc2ncc(F)s2)ccc1Oc1ccc(F)c(Cl)c1")
"0.871 µM"
>>> measurement("COc1cc(F)ccc1Oc1cc(F)c(S(=O)(=O)Nc2nncs2)cc1Cl")
"> 6.45 µM"
>>> measurement("O=S(=O)(Nc1ncc(F)s1)c1ccc(Oc2ccc(Cl)cc2OC(F)(F)F)c(F)c1")
"> 8.78 µM"
>>> measurement("N#Cc1cc(S(=O)(=O)Nc2ncc(F)s2)ccc1Oc1ccc(Cl)cc1")
"> 1.69 µM"
>>> measurement("N#Cc1ccc(Oc2ccc(S(=O)(=O)Nc3cscn3)c(Cl)c2)cc1Cl")
"> 10 µM"

Name the recorded IC50 of the compound listed here: N#Cc1cc(S(=O)(=O)Nc2ncns2)ccc1Oc1ccc(C(F)(F)F)cc1C(F)(F)F
6.19 µM

Specify measured IC50 for N#Cc1cc(S(=O)(=O)Nc2ncc(F)s2)ccc1Oc1cc(F)cc(C(F)(F)F)c1 .
3.38 µM

Provide one value: measured IC50 of Cc1cccc(Oc2ccc(S(=O)(=O)Nc3ncns3)cc2C#N)c1
1.96 µM

Indicate the recorded IC50 value for this compound: N#Cc1cccc(Oc2ccc(S(=O)(=O)Nc3ncc(F)s3)cc2C#N)c1
2.6 µM

Return reported IC50. Input compound: CCc1nc(C)ccc1Oc1ccc(S(=O)(=O)Nc2ncns2)cc1C#N [compound 276, trifluoroacetic acid salt]
> 10 µM

Indicate the recorded IC50 value for this compound: O=S(=O)(Nc1nccs1)c1ccc(Oc2ccc(Cl)cc2C(F)(F)F)c(F)c1
> 10 µM

Give me measured IC50, please, for this compound: CC(C)c1cccc(Oc2cc(F)c(S(=O)(=O)Nc3nccs3)cc2F)c1
> 7.58 µM

###

pIC50 listing for selected compounds.
Biological target: URAT-1 transporter (Homo sapiens, UniProt Q96S37)
Construct: expressed in transfected cells
Assay: URAT-1 inhibitor activity: [14C]-uric acid uptake into CHO-URAT1(L)GFP#8 (CHO#8) cells, scintillation proximity
Assay type: cell-based
pIC50: −log10 of the molar value. Where a name gives a salt, the structure may show the parent alone.

// known answers, use as guide
>>> measurement("Cc1ccnc(C)c1Oc1ccc(S(=O)(=O)Nc2ncns2)cc1C#N [compound 275, trifluoroacetic acid salt]")
"< 5.00"
>>> measurement("N#Cc1cc(S(=O)(=O)Nc2nccs2)ccc1Oc1ccccc1CCO")
"< 5.22"
>>> measurement("CCOc1ccc(Oc2ccc(S(=O)(=O)Nc3ncns3)cc2C#N)cc1")
"< 5.00"

Alright, here's another compound for you.
Provide pIC50 value for the following compound: O=S(=O)(Nc1cscn1)c1ccc(Oc2ccc(F)c(F)c2)cc1F
< 5.00
